biological target: wild-type Androgen Receptor (AR-wt) (Homo sapiens, UniProt P10275); construct: expressed in transfected cells; host or cells: LNCaP; assay: AR reporter assay, LNCaP-AR-wt ANT (antagonist mode); format: cell-based
Sequence (P10275 whole entry): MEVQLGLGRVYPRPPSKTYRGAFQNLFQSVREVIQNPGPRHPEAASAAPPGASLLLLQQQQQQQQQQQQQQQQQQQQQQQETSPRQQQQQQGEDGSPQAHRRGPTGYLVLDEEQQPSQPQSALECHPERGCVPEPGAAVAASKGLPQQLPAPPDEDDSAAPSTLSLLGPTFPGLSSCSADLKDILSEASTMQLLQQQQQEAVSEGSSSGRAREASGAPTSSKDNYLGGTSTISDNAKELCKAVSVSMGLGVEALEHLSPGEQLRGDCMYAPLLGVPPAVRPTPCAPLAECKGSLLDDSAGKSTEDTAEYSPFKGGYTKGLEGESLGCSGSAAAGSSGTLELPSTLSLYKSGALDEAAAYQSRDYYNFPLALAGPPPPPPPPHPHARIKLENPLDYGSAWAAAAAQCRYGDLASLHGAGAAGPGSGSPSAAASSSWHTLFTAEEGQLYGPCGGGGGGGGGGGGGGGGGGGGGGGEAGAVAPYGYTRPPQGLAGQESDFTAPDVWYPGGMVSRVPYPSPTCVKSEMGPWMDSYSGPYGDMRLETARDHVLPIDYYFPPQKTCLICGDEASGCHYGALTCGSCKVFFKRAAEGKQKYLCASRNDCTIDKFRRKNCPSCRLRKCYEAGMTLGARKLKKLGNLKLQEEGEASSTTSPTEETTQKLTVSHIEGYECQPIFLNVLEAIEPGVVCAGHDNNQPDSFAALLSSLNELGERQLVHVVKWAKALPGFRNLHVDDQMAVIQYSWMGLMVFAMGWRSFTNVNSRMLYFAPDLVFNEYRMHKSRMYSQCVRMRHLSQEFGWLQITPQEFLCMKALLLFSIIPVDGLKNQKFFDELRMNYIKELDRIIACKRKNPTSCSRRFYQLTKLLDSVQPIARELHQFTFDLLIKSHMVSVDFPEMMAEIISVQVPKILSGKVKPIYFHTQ
Where a name gives a salt, the structure may show the parent alone.
The compounds listed here are annotated with their IC50.
Measure: IC50 (nM)

[[record]]
compound = "CN1CCC(Oc2ccc(N3C(=S)N(c4ccc(C#N)c(C(F)(F)F)c4)C(=O)C34CCC4)cc2)CC1 [Compound 12]"
measure = "IC50"
readout_unit = "nM"
measured_result = 324

[[record]]
compound = "CC1(C)C(=O)N(c2ccc(C#N)c(Cl)c2)C(=S)N1c1ccc(OC2CCNCC2)cc1 [Compound 7, hydrochloride]"
measure = "IC50"
readout_unit = "nM"
measured_result = 61.7

[[record]]
compound = "CN1CCC(Oc2ccc(N3C(=S)N(c4ccc(C#N)c(Cl)c4)C(=O)C34CCC4)cc2)CC1 [Compound 22]"
measure = "IC50"
readout_unit = "nM"
measured_result = 245

[[record]]
compound = "CN1CCC(Oc2ccc(N3C(=S)N(c4ccc(C#N)c(Cl)c4)C(=O)C3(C)C)cc2)CC1 [Compound 8, hydrochloride]"
measure = "IC50"
readout_unit = "nM"
measured_result = 81.3

[[record]]
compound = "CN1CCC(Oc2ccc(N3C(=S)N(c4ccc(C#N)c(C(F)(F)F)c4)C(=O)C34CCC4)cn2)CC1 [Compound 14]"
measure = "IC50"
readout_unit = "nM"
measured_result = 89.1

[[record]]
compound = "CC1(C)C(=O)N(c2ccc(C#N)c(C(F)(F)F)c2)C(=S)N1c1ccc(OC2CCNCC2)cc1 [Compound 1]"
measure = "IC50"
readout_unit = "nM"
measured_result = 75.9

[[record]]
compound = "CN1CCC(Oc2ccc(N3C(=S)N(c4ccc(C#N)c(C(F)(F)F)c4)C(=O)C3(C)C)cn2)CC1 [Compound 4, hydrochloride]"
measure = "IC50"
readout_unit = "nM"
measured_result = 89.1

[[record]]
compound = "N#Cc1ccc(N2C(=O)C3(CCC3)N(c3ccc(OC4CCNCC4)nc3)C2=S)cc1Cl [Compound 23, hydrochloride]"
measure = "IC50"
readout_unit = "nM"
measured_result = 67.6

